Hi there, I'd appreciate the recorded log10 IC50 for every entry that follows.
# ASSAYED_TARGET: HDAC6 (Homo sapiens, UniProt Q9UBN7)
# Sequence (Q9UBN7 1-1215): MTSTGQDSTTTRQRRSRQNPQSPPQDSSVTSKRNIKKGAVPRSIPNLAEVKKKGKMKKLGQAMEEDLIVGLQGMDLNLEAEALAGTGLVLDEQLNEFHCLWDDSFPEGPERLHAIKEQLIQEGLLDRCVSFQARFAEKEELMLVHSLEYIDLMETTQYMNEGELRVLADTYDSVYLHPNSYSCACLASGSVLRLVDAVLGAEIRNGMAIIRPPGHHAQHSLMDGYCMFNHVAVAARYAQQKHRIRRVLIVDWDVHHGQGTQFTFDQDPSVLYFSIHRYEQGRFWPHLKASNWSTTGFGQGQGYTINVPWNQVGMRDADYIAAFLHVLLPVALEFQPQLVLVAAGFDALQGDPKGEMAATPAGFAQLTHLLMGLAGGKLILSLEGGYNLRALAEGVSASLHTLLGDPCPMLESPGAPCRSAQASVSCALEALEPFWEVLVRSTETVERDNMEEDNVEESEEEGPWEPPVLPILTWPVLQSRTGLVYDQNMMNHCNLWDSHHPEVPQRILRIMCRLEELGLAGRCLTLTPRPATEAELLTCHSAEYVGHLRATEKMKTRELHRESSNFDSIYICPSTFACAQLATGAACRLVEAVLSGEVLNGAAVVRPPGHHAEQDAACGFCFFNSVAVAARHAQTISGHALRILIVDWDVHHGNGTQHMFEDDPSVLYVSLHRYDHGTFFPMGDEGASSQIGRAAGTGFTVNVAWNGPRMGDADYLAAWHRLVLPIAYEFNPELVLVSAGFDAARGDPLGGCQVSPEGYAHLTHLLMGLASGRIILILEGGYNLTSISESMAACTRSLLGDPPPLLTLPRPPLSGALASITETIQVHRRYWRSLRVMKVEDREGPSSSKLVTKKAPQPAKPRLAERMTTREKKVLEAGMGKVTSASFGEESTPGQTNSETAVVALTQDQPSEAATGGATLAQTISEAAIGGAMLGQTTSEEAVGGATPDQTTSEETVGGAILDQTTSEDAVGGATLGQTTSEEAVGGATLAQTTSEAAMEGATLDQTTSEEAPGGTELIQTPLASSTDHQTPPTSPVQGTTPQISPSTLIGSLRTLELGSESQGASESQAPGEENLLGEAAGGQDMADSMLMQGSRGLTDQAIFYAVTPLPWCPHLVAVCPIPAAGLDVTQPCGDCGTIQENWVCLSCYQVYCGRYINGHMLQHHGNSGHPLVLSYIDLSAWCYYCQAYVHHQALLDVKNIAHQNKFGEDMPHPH
# ASSAY: Biochemical luminescent HDAC-Glo I/II assay, HDAC6
# RUN_CONDITIONS: recombinant HDAC6 protein, HDAC-Glo I/II luminescent substrate
For clarity, the numbers are log10 values of IC50 expressed in nM.

Input line: Could you tell me which log10 IC50 is on file for O=C(NO)c1cnc(OC2(c3ccccn3)COC2)c(F)c1 ?
Output line: 1.16

Input line: Could you tell me which log10 IC50 is on file for CCC1(Nc2ncc(C(=O)NO)cc2F)COC1 ?
Output line: 0.53

Input line: Could you tell me which log10 IC50 is on file for O=C(NO)c1cnc(N[C@@H]2CCNC2=O)c(F)c1 [Compound I-43B] ?
Output line: 1.41

Input line: Could you tell me which log10 IC50 is on file for O=C(NO)c1cnc(Cn2c(N3CCOCC3)nc3ccccc32)c(F)c1 ?
Output line: 1.90

Input line: Could you tell me which log10 IC50 is on file for COCCC1(Nc2ncc(C(=O)NO)cc2F)CC1 ?
Output line: 0.67

Input line: Could you tell me which log10 IC50 is on file for O=C(NO)c1cnc(Cn2ccc3cc(C(=O)NC4CC4)cnc32)c(F)c1 ?
Output line: 0.59

Input line: Could you tell me which log10 IC50 is on file for Cc1cc2cccnc2n1Cc1ncc(C(=O)NO)cc1F ?
Output line: 0.47

Input line: Could you tell me which log10 IC50 is on file for COCC1(Nc2ncc(C(=O)NO)cc2F)CC(F)(F)C1 ?
Output line: 0.05

Input line: Could you tell me which log10 IC50 is on file for CO[C@H]1COC[C@@H]1Nc1ncc(C(=O)NO)cc1F ?
Output line: 0.75

Input line: Could you tell me which log10 IC50 is on file for CN1Cc2ccccc2N(Cc2ncc(C(=O)NO)cc2F)C1=O ?
Output line: 0.64

Input line: Could you tell me which log10 IC50 is on file for O=C(NO)c1cnc(NC2(c3ccccn3)CCC2)c(F)c1 ?
Output line: 0.34

Input line: Could you tell me which log10 IC50 is on file for O=C(NO)c1cnc(NC2(c3ncccn3)CC2)c(F)c1 ?
Output line: 1.47

Input line: Could you tell me which log10 IC50 is on file for O=C(NO)c1cnc(N[C@H]2CCNC2=O)c(F)c1 [Compound I-43A] ?
Output line: 1.71

Input line: Could you tell me which log10 IC50 is on file for CN1CC[C@H](Nc2ncc(C(=O)NO)cc2F)C1=O [Compound I-42A] ?
Output line: 1.54

====

# ASSAYED_TARGET: HDAC6 (Homo sapiens, UniProt Q9UBN7)
# ASSAY: Biochemical luminescent HDAC-Glo I/II assay, HDAC6
# RUN_CONDITIONS: recombinant HDAC6 protein, HDAC-Glo I/II luminescent substrate
pIC50: −log10 of the molar value.
Binary classification by pIC50, with 8 as an inclusive lower bound for T; all other cases are F.

Input line: State whether the measured pIC50 reaches 8, counting equality as reaching it, for O=C(NO)c1cnc(Cn2c(C(F)(F)F)nc3ccccc32)c(F)c1
Output line: T

Input line: State whether the measured pIC50 reaches 8, counting equality as reaching it, for Cc1c(C)n(Cc2ncc(C(=O)NO)cc2F)c2ncccc12
Output line: T

Input line: State whether the measured pIC50 reaches 8, counting equality as reaching it, for COC(=O)N(Cc1ncc(C(=O)NO)cc1F)c1ncccc1O
Output line: T

Input line: State whether the measured pIC50 reaches 8, counting equality as reaching it, for O=C(NO)c1cnc(NC2(C3CC3)CC2)c(F)c1
Output line: T

Input line: State whether the measured pIC50 reaches 8, counting equality as reaching it, for O=C(NO)c1cnc(Cn2c3c(c4ccccc42)S(=O)(=O)CC3)c(F)c1
Output line: T

Input line: State whether the measured pIC50 reaches 8, counting equality as reaching it, for CN1CC[C@@H](Nc2ncc(C(=O)NO)cc2F)C1=O [Compound I-42B]
Output line: F

====

Hi there, I'd appreciate the recorded pIC50 for every entry that follows.
# ASSAYED_TARGET: HDAC6 (Homo sapiens, UniProt Q9UBN7)
# Sequence (Q9UBN7 1-1215): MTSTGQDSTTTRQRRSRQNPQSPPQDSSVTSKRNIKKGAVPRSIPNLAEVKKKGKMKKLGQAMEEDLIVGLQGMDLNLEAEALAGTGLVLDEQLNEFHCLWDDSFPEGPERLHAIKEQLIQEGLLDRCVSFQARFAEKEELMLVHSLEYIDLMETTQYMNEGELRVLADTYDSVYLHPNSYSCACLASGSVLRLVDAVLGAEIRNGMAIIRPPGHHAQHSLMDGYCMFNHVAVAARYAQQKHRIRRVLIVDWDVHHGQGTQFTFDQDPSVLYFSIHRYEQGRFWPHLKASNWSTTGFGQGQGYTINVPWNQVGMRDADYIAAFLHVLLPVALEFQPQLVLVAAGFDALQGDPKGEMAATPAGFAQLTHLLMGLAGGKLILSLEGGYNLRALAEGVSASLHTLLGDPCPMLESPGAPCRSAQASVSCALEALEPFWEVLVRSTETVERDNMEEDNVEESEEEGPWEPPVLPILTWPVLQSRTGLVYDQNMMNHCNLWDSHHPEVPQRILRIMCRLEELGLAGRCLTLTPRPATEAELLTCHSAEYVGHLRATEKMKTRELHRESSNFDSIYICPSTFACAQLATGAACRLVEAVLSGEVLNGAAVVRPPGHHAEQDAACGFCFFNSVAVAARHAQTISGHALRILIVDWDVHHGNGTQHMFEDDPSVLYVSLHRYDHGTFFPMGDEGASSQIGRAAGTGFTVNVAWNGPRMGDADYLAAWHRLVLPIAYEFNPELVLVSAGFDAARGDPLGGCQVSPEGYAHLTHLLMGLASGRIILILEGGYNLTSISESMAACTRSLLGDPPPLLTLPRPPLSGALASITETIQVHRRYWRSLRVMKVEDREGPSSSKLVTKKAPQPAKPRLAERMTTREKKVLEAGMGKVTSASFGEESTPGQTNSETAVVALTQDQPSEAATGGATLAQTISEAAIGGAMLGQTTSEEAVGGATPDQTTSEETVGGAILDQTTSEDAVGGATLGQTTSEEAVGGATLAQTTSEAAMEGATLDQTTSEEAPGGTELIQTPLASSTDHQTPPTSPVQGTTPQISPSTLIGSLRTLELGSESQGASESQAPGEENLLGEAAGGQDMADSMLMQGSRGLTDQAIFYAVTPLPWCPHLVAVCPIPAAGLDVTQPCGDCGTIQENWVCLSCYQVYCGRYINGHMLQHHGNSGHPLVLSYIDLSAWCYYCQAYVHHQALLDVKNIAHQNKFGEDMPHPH
# ASSAY: Biochemical luminescent HDAC-Glo I/II assay, HDAC6
# RUN_CONDITIONS: recombinant HDAC6 protein, HDAC-Glo I/II luminescent substrate
// pIC50: -log10(molar conc.)

Input line: Could you tell me which pIC50 is on file for O=C(NO)c1cnc(NC2(c3ccccn3)COC2)c(F)c1 ?
Output line: 8.12

Input line: Could you tell me which pIC50 is on file for Cc1nc2cccnc2n1Cc1ncc(C(=O)NO)cc1F ?
Output line: 8.06

Input line: Could you tell me which pIC50 is on file for O=C(NO)c1cnc(NC2(c3ncccc3F)CC2)c(F)c1 ?
Output line: 8.19

Data origin, for the record: patent US20230123856A1
